study.system: T1, human CD24 on cells (human, UniProt P25063 27-59)
T1 construct: whole, on cells; One molecule for all cell lines; the cell line is named under assay or readout; also called cell surface CD24; cell-based CD24
T1 chain (looked up): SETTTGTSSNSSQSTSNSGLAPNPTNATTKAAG
assay.text: flow cytometry (GMFI), MCF-7 cells; EC50 table under the graphs
In this section, each of the binders is paired with its reported EC50.
Report the value in µg/mL with no unit label.

Exercise: Which measured EC50 value corresponds to VH + VL (4451 parental variable regions, Table 7) (antibody, V domains shown) VH: EVQLQQSGPELVKPGASVKISCKASGYDFTGYHMNWVKQSPEKSLEWIGEINPITSDKTFNQKFKSKATLTVDRSSSTAYMYLKSLTSEDSAVYYCARRDYGTSLDYWGQGTTLTVSS VL: DVQITQSPSYLAASPGETITIYCRASKSISKYLAWYQEKPEKTNRLLIYAGSTLHSGIPSRFRGSGSGKDFTLTVSGLEPEDFAMYYCQQHNEYPITFGAGTKLELK ?
Solution: 0.4

Turning now to a further record.
Exercise: Would you kindly share the measured EC50 for VH4 + VL3 (humanized 4451) (antibody, V domains shown, IgG expressed in HEK293) VH: QVQLVQSGAEVKKPGASVKVSCKASGYDFTGYHMNWVKQAPGQGLEWIGEINPITSDKTFNQKFKSRATMTVDRSISTAYMELSRLRSDDTAVYYCARRDYGTSLDYWGQGTTVTVSS VL: DIQLTQSPSFLSASVGDRVTITCRASKSISKYLAWYQQKPGKAPKLLIYAGSTLHSGIPSRFRGSGSGTEFTLTISSLQPEDFATYYCQQHNEYPITFGQGTKLEIK ?
Solution: 0.45
